Listed below: recombinant barcode read abundance (log10) values for each entry.
assay: recombinant barcode read abundance after kanamycin selection (control-corrected) (log10(CPM+1)); higher = more efficient recombination; sequences stand for … in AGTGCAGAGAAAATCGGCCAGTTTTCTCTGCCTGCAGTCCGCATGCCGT…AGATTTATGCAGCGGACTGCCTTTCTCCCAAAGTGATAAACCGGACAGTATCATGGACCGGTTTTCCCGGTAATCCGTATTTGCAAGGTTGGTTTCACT; site = the 11-nt target
Please respond with just the number, no unit label.

Known recombinant barcode read abundance (log10) results, listed for orientation:
CGAAGGACTTGGGTTCTAACCTGTTGCTA (site CTAAGGACTTA)    0.231
GCTAGGGCTTGGGTTCTAACCTGTTGCAG (site GCTAGGGCTCT)    2.94

Record request: recombinant barcode read abundance (log10) value, item GCATGACCTTGGGTTCTAACCTGTTGCAG (site CACAATACTAG)
0.343

Would you mind doing AGCCCGCCTTGGGTTCTAACCTGTTGCCT (site AGCCCGCCTAG) as well?
0.358

Would you mind doing ACACCACCTTGGGTTCTAACCTGTTGCCT (site AAACCACCTAG) as well?
0.585

Would you mind doing GACTTTCCTTGGGTTCTAACCTGTTGCAT (site GACTTCCCTAT) as well?
0.272

Would you mind doing ACTTCCACTTGGGTTCTAACCTGTTGCCT (site TCTTCCACTAG) as well?
0.111

Would you mind doing GTCGGGACTTGGGTTCTAACCTGTTGCCT (site GTCGGTACTAG) as well?
0.0446

Would you mind doing AACAGGTCTTGGGTTCTAACCTGTTGCCT (site ACCAGGTCTAG) as well?
0.175

Would you mind doing TAGTTAGCTTGGGTTCTAACCTGTTGCCC (site TAGTTAGCTTG) as well?
0.0262

###

Listed below: recombinant barcode read abundance (log10) values for each entry.
assay: recombinant barcode read abundance after kanamycin selection (control-corrected) (log10(CPM+1)); higher = more efficient recombination; sequences stand for … in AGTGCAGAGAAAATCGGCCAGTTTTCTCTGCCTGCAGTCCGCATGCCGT…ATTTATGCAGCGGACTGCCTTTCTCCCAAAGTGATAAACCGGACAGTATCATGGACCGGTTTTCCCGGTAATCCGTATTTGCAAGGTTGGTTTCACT; site = the 11-nt target
Please respond with just the number, no unit label.

Known recombinant barcode read abundance (log10) results, listed for orientation:
AGGCCTCACTGGGTTCTAACCTGTTGCCTAG [AGGCCTCCTAG_LTGcore_AC_RTGcore_CT] (site AGGCCTCCTAG) (LTG core: AC, RTG core: CT)    0.134
ATGTCCCATTGGGTTCTAACCTGTTGCTCAT [ATGTCCCCTGA_LTGcore_AT_RTGcore_AT] (site ATGTCCCCTGA) (LTG core: AT, RTG core: AT)    0.0551

Okay, now this sequence:
Record request: recombinant barcode read abundance (log10) value, item TAGAGGGTCTGGGTTCTAACCTGTTGCGGAG [TAGAGGGCTCC_LTGcore_TC_RTGcore_CT] (site TAGAGGGCTCC) (LTG core: TC, RTG core: CT)
0.506

###

assay: recombinant UMI read abundance after kanamycin selection (control-corrected) (log10(CPM+1)); higher = more efficient recombination; extreme values may be limits of the assay; sequences stand for … in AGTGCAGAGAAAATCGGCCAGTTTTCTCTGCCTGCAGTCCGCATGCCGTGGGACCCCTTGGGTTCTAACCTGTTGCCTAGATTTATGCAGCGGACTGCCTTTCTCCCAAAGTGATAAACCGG…AGGTTGGTTTCACT; site = the 11-nt donor
reported_metric: recombinant UMI read abundance (log10)
Please respond with just the number, no unit label.

CAAGTATCATGGACCGGTTTTCCCGGTAATCCGTATTTGAC (site CAAGTATCTGT)    2.94
CTATATGCATGGACCGGTTTTCCCGGTAATCCGTATTTGTA (site CTATATGCTTA)    2.55
ATAAGCCCATGGACCGGTTTTCCCGGTAATCCGTATTTGAC (site ATAAGCCCTGT)    2.3

Record request: recombinant UMI read abundance (log10) value, item CAGTTGGCATGGACCGGTTTTCCCGGTAATCCGTATTTGGA (site CATTTGGCTTC)
0.00616

Would you mind doing AACTCGCCATGGACCGGTTTTCCCGGTAATCCGTATTTGTT (site AACTCGCCTAA) as well?
0.0268

Would you mind doing TATTTGGCATGGACCGGTTTTCCCGGTAATCCGTATTTGGG (site TATTTGGCTCA) as well?
0

Would you mind doing TACACCGCATGGACCGGTTTTCCCGGTAATCCGTATTTGCG (site TACACCGCTCG) as well?
0.0108

Would you mind doing ATGACGGCATGGACCGGTTTTCCCGGTAATCCGTATTTGAG (site ATGACGGCTCT) as well?
1.39

Would you mind doing CCCTGGCCATGGACCGGTTTTCCCGGTAATCCGTATTTGCC (site CCCTCGCCTGG) as well?
0

Would you mind doing TCGGAGACATGGACCGGTTTTCCCGGTAATCCGTATTTGAT (site TCGGAGACTAT) as well?
1.93

Would you mind doing GCAATTTCATGGACCGGTTTTCCCGGTAATCCGTATTTGTA (site GCAATTTCTTA) as well?
2.26

Would you mind doing CGTCGAACATGGACCGGTTTTCCCGGTAATCCGTATTTGTT (site CGTAGAACTAA) as well?
0

Would you mind doing TTCACCTCATGGACCGGTTTTCCCGGTAATCCGTATTTGGT (site TTCACCTCTAC) as well?
0

Would you mind doing ACCGATCCATGGACCGGTTTTCCCGGTAATCCGTATTTGCA (site ACCGATCCTTG) as well?
0.164

Would you mind doing CCATTATCATGGACCGGTTTTCCCGGTAATCCGTATTTGCA (site CCATTATCTTG) as well?
0.785

Would you mind doing AGTTATGCATGGACCGGTTTTCCCGGTAATCCGTATTTGGA (site ATTTATGCTTC) as well?
0.709

Would you mind doing GACAAACCATGGACCGGTTTTCCCGGTAATCCGTATTTGCT (site GACAAACCTAA) as well?
0.00711

Would you mind doing CTCCTCCCATGGACCGGTTTTCCCGGTAATCCGTATTTGAC (site CTCCTCCCTGT) as well?
1.49

Would you mind doing GAATGGCCATGGACCGGTTTTCCCGGTAATCCGTATTTGCC (site GAATGGCCTTG) as well?
0

Would you mind doing TCGGATACATGGACCGGTTTTCCCGGTAATCCGTATTTGCC (site TCGGATACTGG) as well?
0.615

Would you mind doing GTACAGTCATGGACCGGTTTTCCCGGTAATCCGTATTTGAT (site GTACAGTCTAT) as well?
2.73

Would you mind doing GGAACATCATGGACCGGTTTTCCCGGTAATCCGTATTTGCT (site GGAACATCTAG) as well?
2.03
